Where these numbers come from: patent US12258609B2

Entries and their share in chromatogram, FaSSIF o.P. 24 h, 35° C.
Tested on: Panzytrat® 40,000 (pancreatin)
Experiment notes: Cleavage experiments with and without Panzytrat 40,000 in FaSSIF medium (simulates the intestinal tract, pH 6.5)
Condition description: the 11th table; FaSSIF (bowel, pH = 6.5), without Panzytrat, 24 h, 35° C.
// units = % area; emit number, no label

Check out these entries, answers already filled in.
Compound | Measurement unit | Recorded value
CC(O)CC(=O)OC(C)CC(=O)OCC(O)CO (centres unmarked) | % area | 0.44
CC(O)CC(=O)OC(C)CC(=O)OCC(CO)OC(=O)CC(C)O (centres unmarked) | % area | 7.61

[ask] Note down share in chromatogram, FaSSIF o.P. 24 h, 35° C. recorded for CC(O)CC(=O)OCC(O)CO (centres unmarked) [3-BHB-MG, monoglyceride of 3-hydroxybutyric acid]
[reply] 12.26

[ask] Note down share in chromatogram, FaSSIF o.P. 24 h, 35° C. recorded for CC(O)CC(=O)OCC(CO)OC(=O)CC(C)O (centres unmarked) [3-BHB-DG, diglyceride of 3-hydroxybutyric acid]
[reply] 60.93

[ask] Note down share in chromatogram, FaSSIF o.P. 24 h, 35° C. recorded for OCC(O)CO
[reply] 0.05

[ask] Note down share in chromatogram, FaSSIF o.P. 24 h, 35° C. recorded for CC(O)CC(=O)OCC(COC(=O)CC(C)O)OC(=O)CC(C)O (centres unmarked) [3-BHB-TG, triglyceride of 3-hydroxybutyric acid]
[reply] 16.79

[ask] Note down share in chromatogram, FaSSIF o.P. 24 h, 35° C. recorded for CC(O)CC(=O)O (centres unmarked) [3-BHB-FS, 3-hydroxybutyric acid]
[reply] 0.02

[ask] Note down share in chromatogram, FaSSIF o.P. 24 h, 35° C. recorded for CCOC(=O)CC(C)O (centres unmarked) [3-BHB-ethyl, 3-hydroxybutyric acid ethyl ester]
[reply] 0.18

====

Test system: Panzytrat® 40,000 (pancreatin)
Experiment notes: Cleavage experiments with and without Panzytrat 40,000 in FaSSGF medium (simulates the stomach, pH 1.6)
Condition description: the 11th table; starting mixture (crude high-boiling fraction) before splitting
Note to self: share in chromatogram, before splitting under 20 % area means yes, ties and anything higher get no.

Compound | Classification
CC(O)CC(=O)OCC(CO)OC(=O)CC(C)O (centres unmarked) [3-BHB-DG, diglyceride of 3-hydroxybutyric acid] | no

[ask] Would you kindly verify if share in chromatogram, before splitting of CC(O)CC(=O)OC(C)CC(=O)OCC(O)CO (centres unmarked) is strictly less than 20 % area?
[reply] yes

[ask] Would you kindly verify if share in chromatogram, before splitting of CC(O)CC(=O)OCC(COC(=O)CC(C)O)OC(=O)CC(C)O (centres unmarked) [3-BHB-TG, triglyceride of 3-hydroxybutyric acid] is strictly less than 20 % area?
[reply] yes

[ask] Would you kindly verify if share in chromatogram, before splitting of CC(O)CC(=O)OC(C)CC(=O)OCC(CO)OC(=O)CC(C)O (centres unmarked) is strictly less than 20 % area?
[reply] yes

[ask] Would you kindly verify if share in chromatogram, before splitting of CC(O)CC(=O)OCC(O)CO (centres unmarked) [3-BHB-MG, monoglyceride of 3-hydroxybutyric acid] is strictly less than 20 % area?
[reply] yes

====

Tested on: Panzytrat® 40,000 (pancreatin)
Experiment notes: Cleavage experiments with and without Panzytrat 40,000 in FaSSIF medium (simulates the intestinal tract, pH 6.5)
Condition description: the 11th table; FaSSIF (bowel, pH = 6.5), with Panzytrat, 24 h, 35° C.
Entries and their share in chromatogram, FaSSIF m.P. 24 h, 35° C.
// units = % area; emit number, no label

Check out these entries, answers already filled in.
Compound | Recorded value
CC(O)CC(=O)OCC(CO)OC(=O)CC(C)O (stereo not drawn) [3-BHB-DG, diglyceride of 3-hydroxybutyric acid] | 61.38
CC(O)CC(=O)OCC(COC(=O)CC(C)O)OC(=O)CC(C)O (stereo not drawn) [3-BHB-TG, triglyceride of 3-hydroxybutyric acid] | 12.83

Shifting focus to the compound that follows.
[ask] Note down share in chromatogram, FaSSIF m.P. 24 h, 35° C. recorded for CCOC(=O)CC(C)O (stereo not drawn) [3-BHB-ethyl, 3-hydroxybutyric acid ethyl ester]
[reply] 0.20

====

Test system: porcine pancreatic lipase type II (PPL type II)
Measured metric: before splitting 0 h (%)
// units = %; emit number, no label

[ask] Note down before splitting 0 h recorded for CC(O)CC(=O)OC(C)CC(=O)O (stereo not shown) [3-BHB dimer, dimer of 3-hydroxybutyrate]
[reply] 0.7

====

Test system: porcine pancreatic lipase type II (PPL type II)
Experiment notes: Cleavage experiments with and without porcine pancreatic lipase in FaSSIF medium
Condition description: the 14th table; FaSSIF medium, 0 h
Use 10 as the dividing line for before splitting 0 h, with the line itself on the 1.0 side and lower values as 0.0.

[ask] Could you verify whether the entry CC(O)CC(=O)OC(C)CC(=O)OCC(CO)OC(=O)CC(C)O (stereo not drawn) shows before splitting 0 h of no less than 10?
[reply] 0.0

[ask] Could you verify whether the entry CC(O)CC(=O)OCC(COC(=O)CC(C)O)OC(=O)CC(C)O (stereo not drawn) [3-BHB-TG, triglyceride of 3-hydroxybutyric acid] shows before splitting 0 h of no less than 10?
[reply] 1.0

[ask] Could you verify whether the entry CC(O)CC(=O)OCC(CO)OC(=O)CC(C)O (stereo not drawn) [3-BHB-DG, diglyceride of 3-hydroxybutyric acid] shows before splitting 0 h of no less than 10?
[reply] 1.0

====

Entries and their before splitting 0 h
Tested on: Panzytrat® 40,000 (pancreatin)
Experiment notes: Cleavage experiments with and without Panzytrat 40,000 in FaSSIF medium (simulates the intestinal tract, pH 6.5)
Condition description: the 13th table; FaSSIF medium, 0 h; in %

Molecule | before splitting 0 h
CC(O)CC(=O)OCC(COC(=O)CC(C)O)OC(=O)CC(C)O (stereo not drawn) [3-BHB-TG, triglyceride of 3-hydroxybutyric acid] | 16.40

[ask] Note down before splitting 0 h recorded for OCC(O)CO
[reply] 0.07

[ask] Note down before splitting 0 h recorded for CC(O)CC(=O)OC(C)CC(=O)OCC(O)CO (stereo not drawn)
[reply] 0.42

[ask] Note down before splitting 0 h recorded for CC(O)CC(=O)O (stereo not drawn) [3-BHB-FS, 3-hydroxybutyric acid]
[reply] 0.04

[ask] Note down before splitting 0 h recorded for CC(O)CC(=O)OC(C)CC(=O)OCC(CO)OC(=O)CC(C)O (stereo not drawn)
[reply] 7.56

[ask] Note down before splitting 0 h recorded for CC(O)CC(=O)OC(C)CC(=O)O (stereo not drawn) [3-BHB-dimer-FS, dimer of 3-hydroxybutyric acid]
[reply] 0.00

[ask] Note down before splitting 0 h recorded for CC(O)CC(=O)OCC(O)CO (stereo not drawn) [3-BHB-MG, monoglyceride of 3-hydroxybutyric acid]
[reply] 13.52

[ask] Note down before splitting 0 h recorded for CCOC(=O)CC(C)O (stereo not drawn) [3-BHB-ethyl, 3-hydroxybutyric acid ethyl ester]
[reply] 0.16

[ask] Note down before splitting 0 h recorded for CC(O)CC(=O)OCC(CO)OC(=O)CC(C)O (stereo not drawn) [3-BHB-DG, diglyceride of 3-hydroxybutyric acid]
[reply] 60.17

====

Tested on: porcine pancreatic lipase type II (PPL type II)
Experiment notes: Cleavage experiments with and without porcine pancreatic lipase in FaSSIF medium
Condition description: the 14th table; FaSSIF medium pH 6.5, 1 wt.-% porcine pancreatic lipase type II, 24 h, 35° C.
Measured metric: with enzyme, 24 h, 35° C.
Output spec: single numeric token, no unit.

Check out these entries, answers already filled in.
Compound | with enzyme, 24 h, 35° C.
CC(O)CC(=O)OC(C)CC(=O)OCC(O)CO (stereo not drawn) [3-BHB-dimer-MG] | 0.16
CC(O)CC(=O)OCC(COC(=O)CC(C)O)OC(=O)CC(C)O (stereo not drawn) [3-BHB-TG, triglyceride of 3-hydroxybutyric acid] | 13.38
CC(O)CC(=O)OCC(CO)OC(=O)CC(C)O (stereo not drawn) [3-BHB-DG, diglyceride of 3-hydroxybutyric acid] | 59.84
CC(O)CC(=O)OCC(O)CO (stereo not drawn) [3-BHB-MG, monoglyceride of 3-hydroxybutyric acid] | 15.98
CC(O)CC(=O)OC(C)CC(=O)OCC(CO)OC(=O)CC(C)O (stereo not drawn) [3-BHB-dimer-DG] | 7.07

[ask] GET with enzyme, 24 h, 35° C. | system: porcine pancreatic lipase type II (PPL type II) | item: CC(O)CC(=O)OC(C)CC(=O)O (stereo not drawn) [3-BHB-dimer-FS, dimer of 3-hydroxybutyric acid]
[reply] 0.17

====

Tested on: porcine pancreatic lipase type II (PPL type II)
Experiment notes: Cleavage experiments with and without porcine pancreatic lipase in FaSSIF medium
Condition description: the 14th table; FaSSIF medium pH 6.5, without enzyme, 24 h, 35° C.
Entries and their without enzyme 24 h, 35° C.
Output spec: single numeric token, no unit.

Check out these entries, answers already filled in.
Compound | Measured metric | Recorded value
CC(O)CC(=O)OC(C)CC(=O)O (stereo not drawn) [3-BHB-dimer-FS, dimer of 3-hydroxybutyric acid] | without enzyme 24 h, 35° C. | 0.00
CC(O)CC(=O)OCC(COC(=O)CC(C)O)OC(=O)CC(C)O (stereo not drawn) [3-BHB-TG, triglyceride of 3-hydroxybutyric acid] | without enzyme 24 h, 35° C. | 16.79

[ask] Note down without enzyme 24 h, 35° C. recorded for CC(O)CC(=O)OC(C)CC(=O)OCC(CO)OC(=O)CC(C)O (stereo not drawn) [3-BHB-dimer-DG]
[reply] 7.61

[ask] Note down without enzyme 24 h, 35° C. recorded for CC(O)CC(=O)OCC(O)CO (stereo not drawn) [3-BHB-MG, monoglyceride of 3-hydroxybutyric acid]
[reply] 12.26

[ask] Note down without enzyme 24 h, 35° C. recorded for CC(O)CC(=O)OCC(CO)OC(=O)CC(C)O (stereo not drawn) [3-BHB-DG, diglyceride of 3-hydroxybutyric acid]
[reply] 60.93

[ask] Note down without enzyme 24 h, 35° C. recorded for CC(O)CC(=O)OC(C)CC(=O)OCC(O)CO (stereo not drawn) [3-BHB-dimer-MG]
[reply] 0.44
